meta.source: paper PMC9090415

% inhibition ApPOL 90' listing for selected compounds.
- System Tested: P. falciparum apicoplast DNA polymerase (Pf-apPOL) (Plasmodium falciparum, UniProt Q8ILY1)
- Sequence (Q8ILY1 entry or part of it): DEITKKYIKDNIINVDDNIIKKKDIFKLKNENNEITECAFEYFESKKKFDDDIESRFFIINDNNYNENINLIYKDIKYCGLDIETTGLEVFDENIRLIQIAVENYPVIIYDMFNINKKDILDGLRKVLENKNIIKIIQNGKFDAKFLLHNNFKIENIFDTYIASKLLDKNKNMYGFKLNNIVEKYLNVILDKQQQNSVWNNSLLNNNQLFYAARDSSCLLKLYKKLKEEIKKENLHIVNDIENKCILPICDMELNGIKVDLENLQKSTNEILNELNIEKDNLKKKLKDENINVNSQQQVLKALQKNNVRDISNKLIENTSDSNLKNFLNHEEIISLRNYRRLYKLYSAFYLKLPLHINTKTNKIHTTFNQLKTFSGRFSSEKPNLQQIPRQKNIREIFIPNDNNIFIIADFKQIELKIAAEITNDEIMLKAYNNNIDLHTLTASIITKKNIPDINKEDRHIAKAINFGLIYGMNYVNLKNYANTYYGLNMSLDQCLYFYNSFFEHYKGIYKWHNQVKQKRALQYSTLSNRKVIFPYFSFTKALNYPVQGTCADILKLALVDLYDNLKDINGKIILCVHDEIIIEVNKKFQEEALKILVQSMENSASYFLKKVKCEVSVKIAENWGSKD
- Test Summary: Fluorescence-based high-throughput DNA polymerase assay (molecular beacon), primary screen and dose-response;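 note: test concentration in µM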
- Type: biochemical
- Protocol Conditions: DRC-2; 90'; concentration 2.5
Report as a plain number; the unit % is understood.

In [3]: df
Out[3]:
                                   compound  reading_unit  reading
0  COc1ccc(-c2cc(=O)c3cc(O)ccc3o2)cc1OC [KU0193655]             %    0.778
1  COCC(=O)Nc1c(-c2cccc(F)c2)nc2cc(C)ccn12 [Molecule 44, COCC(=O)Nc1c(nc2n1ccc(c2)C)c1cccc(c1)F]             %        8
2  COCCN(CCOC)Cc1c(O)ccc2c1OC(=Cc1cc(Br)ccc1OC)C2=O [KU0198471]             %       10
3  O=C(O)c1cc([N+](=O)[O-])c(N2CCN(c3cccc(C(F)(F)F)c3)CC2)c([N+](=O)[O-])c1 [KU0076747]             %       10
4  CCCCCCCCCCCC1SCC(C(=O)O)N1C(C)=O (centres unmarked) [Molecule 72]             %        6
5  O=C(Nc1ccc2c(c1)Cc1cc(NC(=O)c3ccco3)ccc1-2)c1ccco1 [KU0038977]             %       29
6  Cc1ccc(-n2nnc(C(=O)O)c2-c2ccccn2)c(F)c1 [Molecule 54, Cc1ccc(c(c1)F)n1nnc(c1c1ccccn1)C(=O)O]             %     3.47

We next turn to a different compound, shown below.
Input: Fill in: % inhibition ApPOL 90' of O=C1CCCC2=C1C(c1ccccn1)C1=C(CCCC1=O)O2 [KU0194228] is ___
Output: 2
